Quick reference: inhibition at 10 µM of the listed items.
Study Target: UniProt:Q8NBP7
Method: PCSK9-LDLR in vitro binding assay (solid phase, ELISA readout)
Condition Set: test compound concentration 10 μM; read-out: % Inhibition PCSK 9
Numeric only. Scale: %

Check out these entries, answers already filled in.
{"Smi": "Cc1oc(-c2ccc(F)cc2)nc1-c1ccc(OCC(=O)NCC2CCOCC2)cc1", "Unit Annotation": "%", "inhibition at 10 µM": 24}
{"Smi": "Cc1nc(-c2ccc(OCC(=O)NCC3CCOCC3)cc2)oc1C", "Unit Annotation": "%", "inhibition at 10 µM": 9}

We now examine a further compound.
What inhibition at 10 µM value was documented for this compound, "Cc1nc(-c2ccccc2)sc1-c1ccc(OCC(=O)NCC2CCOCC2)cc1" ?
44

###

Study Target: PCSK9 (Homo sapiens, UniProt Q8NBP7)
Sequence (Q8NBP7 153-692): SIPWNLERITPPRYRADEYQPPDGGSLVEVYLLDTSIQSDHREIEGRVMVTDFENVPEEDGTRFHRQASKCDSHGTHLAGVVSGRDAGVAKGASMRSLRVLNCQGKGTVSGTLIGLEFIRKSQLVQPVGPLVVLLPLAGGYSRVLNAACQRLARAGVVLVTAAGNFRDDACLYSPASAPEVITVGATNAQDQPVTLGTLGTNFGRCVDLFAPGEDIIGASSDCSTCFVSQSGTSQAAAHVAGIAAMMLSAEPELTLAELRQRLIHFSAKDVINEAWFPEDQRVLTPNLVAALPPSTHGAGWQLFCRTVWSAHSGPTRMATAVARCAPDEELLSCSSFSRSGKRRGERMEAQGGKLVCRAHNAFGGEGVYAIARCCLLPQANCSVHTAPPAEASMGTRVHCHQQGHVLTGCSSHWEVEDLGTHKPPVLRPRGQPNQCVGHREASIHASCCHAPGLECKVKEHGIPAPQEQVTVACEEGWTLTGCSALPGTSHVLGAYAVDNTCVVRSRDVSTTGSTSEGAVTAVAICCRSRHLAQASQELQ
Sequence (Q8NBP7 31-152 partner limits assumed): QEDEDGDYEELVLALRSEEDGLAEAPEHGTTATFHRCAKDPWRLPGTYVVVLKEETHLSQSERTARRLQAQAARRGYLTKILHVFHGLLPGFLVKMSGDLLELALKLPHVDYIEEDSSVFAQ
Method: PCSK9-LDLR in vitro binding assay (solid phase, ELISA readout)
Condition Set: test compound concentration 100 μM; read-out: % Inhibition PCSK 9
Endpoint Label: inhibition at 100 µM (%)
Numeric only. Scale: %

Give inhibition at 100 µM (PCSK9 (Homo sapiens, UniProt Q8NBP7)) of the following compound: Cc1onc(-c2ccc(OCC(=O)NCC3CCOCC3)cc2)c1-c1ccccc1 [Example 2]
33

Give inhibition at 100 µM (PCSK9 (Homo sapiens, UniProt Q8NBP7)) of the following compound: Cc1ccc(-c2nc(-c3ccc(OCC(=O)NCC4CCOCC4)cc3)c(C)o2)cc1 [Example 22]
54

###

Study Target: UniProt Q8NBP7
Method: PCSK9-LDLR in vitro binding assay (solid phase, ELISA readout)
Condition Set: test compound concentration 1 μM; read-out: % Inhibition PCSK 9
Quick reference: inhibition at 1 µM of the listed items.
Numeric only. Scale: %

Check out these entries, answers already filled in.
{"Compound": "O=C(COc1ccc(C2CN(c3ccc(F)cc3)C(=O)O2)cc1)NCC1CCOCC1 (stereo not shown) [Example 35]", "Study Target": "UniProt Q8NBP7", "inhibition at 1 µM, %": 14}
{"Compound": "Cc1c(-c2ccc(OCC(=O)NCC3CCOCC3)cc2)noc1-c1ccc(C(F)(F)F)cc1 [Example 5]", "Study Target": "UniProt Q8NBP7", "inhibition at 1 µM, %": 49}
{"Compound": "O=C(COc1ccc(-c2nnc(-c3ccc(C(F)(F)F)cc3)o2)cc1)NCC1CCOCC1 [Example 31]", "Study Target": "UniProt Q8NBP7", "inhibition at 1 µM, %": 25}

We now examine a further compound.
What inhibition at 1 µM value was documented for this compound, Cc1oc(-c2ccccc2)nc1-c1ccc(OCC(=O)NCC2CCOCC2)cc1 [Example 17] ?
40

###

Study Target: PCSK9 (Homo sapiens)
Method: PCSK9-LDLR in vitro binding assay (solid phase, ELISA readout)
Condition Set: test compound concentration 100 μM; read-out: % Inhibition PCSK 9
Quick rule: inhibition at 100 µM of at least 60% means yes (1), below that means no (0).

Please review the entries below; each comes with its answer.
{"Compound": "O=C(COc1ccc(-c2nnc(-c3ccc(F)cc3)o2)cc1)NCC1CCOCC1 [Example 30]", "Study Target": "PCSK9 (Homo sapiens)", "Category Label": "no (0)"}
{"Compound": "Cc1c(-c2ccc(OCC(=O)NCC3CCOCC3)cc2)noc1-c1ccc(Cl)cc1 [Example 4]", "Study Target": "PCSK9 (Homo sapiens)", "Category Label": "no (0)"}
{"Compound": "Cc1oc(-c2ccccc2)nc1-c1ccc(OCC(=O)NCC2CCOCC2)cc1 [Example 17]", "Study Target": "PCSK9 (Homo sapiens)", "Category Label": "yes (1)"}

Check the entry Cc1c(-c2ccc(OCC(=O)NCC3CCOCC3)cc2)noc1-c1ccccc1 [Example 1] : does inhibition at 100 µM equal or exceed 60%?
yes (1)

Check the entry Cc1nc(-c2ccc(OCC(=O)NCC3CCOCC3)cc2)oc1C [Example 39] : does inhibition at 100 µM equal or exceed 60%?
no (0)

Check the entry O=C(COc1ccc(-n2cc(-c3ccccc3)nn2)cc1)NCC1CCOCC1 [Example 37] : does inhibition at 100 µM equal or exceed 60%?
yes (1)

Check the entry Cc1oc(-c2ccc(F)cc2)nc1-c1ccc(OCC(=O)NCC2CCOCC2)cc1 [Example 19] : does inhibition at 100 µM equal or exceed 60%?
no (0)

Check the entry Cc1c(-c2ccc(OCC(=O)NCC3CCOCC3)cc2)noc1-c1ccc(C(F)(F)F)cc1 [Example 5] : does inhibition at 100 µM equal or exceed 60%?
yes (1)

Check the entry Cc1nc(-c2ccc(F)cc2)sc1-c1ccc(OCC(=O)NCC2CCOCC2)cc1 [Example 13] : does inhibition at 100 µM equal or exceed 60%?
yes (1)

Check the entry O=C(COc1ccc(-c2nnc(-c3ccc(C(F)(F)F)cc3)o2)cc1)NCC1CCOCC1 [Example 31] : does inhibition at 100 µM equal or exceed 60%?
no (0)

Check the entry Cc1nc(-c2ccccc2)sc1-c1ccc(OCC(=O)NCC2CCOCC2)cc1 [Example 11] : does inhibition at 100 µM equal or exceed 60%?
no (0)

Check the entry COc1cc(-c2ccc(OCC(=O)NCC3CCOCC3)cc2)nn1-c1ccc(F)cc1 [Example 9] : does inhibition at 100 µM equal or exceed 60%?
yes (1)

Check the entry COc1cc(-c2ccc(OCC(=O)NCC3CCOCC3)cc2)nn1-c1ccc(C(F)(F)F)cc1 [Example 8] : does inhibition at 100 µM equal or exceed 60%?
no (0)

Check the entry Cc1c(-c2ccc(OCC(=O)NCC3CCOCC3)cc2)nsc1-c1ccccc1 [Example 7] : does inhibition at 100 µM equal or exceed 60%?
no (0)

Check the entry Cc1oc(-c2cccnc2)nc1-c1ccc(OCC(=O)NCC2CCOCC2)cc1 [Example 24] : does inhibition at 100 µM equal or exceed 60%?
no (0)

Check the entry Cc1c(-c2ccc(OCC(=O)NCC3CCOCC3)cc2)noc1-c1ccc(F)cc1 [Example 3] : does inhibition at 100 µM equal or exceed 60%?
yes (1)

Check the entry O=C(COc1ccc(-c2noc(-c3ccc(C(F)(F)F)cc3)n2)cc1)NCC1CCOCC1 [Example 25] : does inhibition at 100 µM equal or exceed 60%?
yes (1)

Check the entry Cc1nc(-c2ccc(C(F)(F)F)cc2)sc1-c1ccc(OCC(=O)NCC2CCOCC2)cc1 [Example 12] : does inhibition at 100 µM equal or exceed 60%?
no (0)
